conditions: in n-hexane, 293.15 K

Smiles Structure	solubility (mole fraction)
Oc1ccc(OCc2ccccc2)cc1	0.000749
